tested on: OV90; assay: Primary qHTS to identify gynecologic anti-cancer compounds using libraries of approved drugs and bioactive compounds (AID 1345084); conditions: Gynecologic cancer cell panel viability, ATPlite luminescence, 48 h; series mostly up to 57.5 µM; note: nearly all actives have a fitted effect of over 55% in size
Results filed as inconclusive are left out. Active and inactive are the calls of the source. Calls come from the whole dose curve; as a rule, active = well fitted cell-killing curve with a large enough effect; inconclusive = small, poorly fitted or top-dose-only effect, or effect the other way; inactive = flat fitted curve, though single readings scatter.
API: response.call in yes for active, no for inactive

Input: Field: outcome | Entry: `COc1cc(C(C)C)c(Oc2cnc(N)nc2N)cc1I`
Output: no

Input: Field: outcome | Entry: CC1(CO)CC(O)[C@]2(C(=O)O)CCC34CC3(C=CC3[C@]5(C)C(CC[C@]34C)C(C)(CO)[C@@H](O)[C@H](O)[C@@H]5O)C2C1 (stereo not given in full)
Output: no

Input: Field: outcome | Entry: C[C@@H]1CC[C@@]23CC[C@]4(C)[C@@](C=CC5[C@@]6(C)CC[C@H](O)C(C)(C)C6CC[C@]54C)(OC2=O)C3[C@H]1C (stereo not given in full)
Output: no

Input: Field: outcome | Entry: C/C=C/C1=CC2=C(CO1)C(=O)C(C)(OC(=O)c1c(C)cc(O)cc1OC)C(O)C2 (stereo not given)
Output: no

Input: Field: outcome | Entry: Cc1ccccc1C(C(=O)NC1CCCCC1)N(C(=O)Cn1cnc2ccccc21)c1cccc(F)c1 (stereo not given)
Output: no

Input: Field: outcome | Entry: `N#CC(CCCN1CCN(/N=C/c2cccnc2)CC1)(c1ccccc1)c1ccccc1`
Output: no

Input: Field: outcome | Entry: `CC(C)=CCc1cc2c(cc1O)OC[C@H]1c3ccc(O)cc3O[C@@H]21`
Output: no

Input: Field: outcome | Entry: `Cc1cccc(CC(=O)N2CCc3c2ccc(-c2cn(C)c4ncnc(N)c24)c3F)n1`
Output: no

Input: Field: outcome | Entry: `C=C1C(=O)O[C@@H]2C[C@@]3(C)C[C@@H](O)C[C@H](C)C3=C[C@H]12`
Output: no

Input: Field: outcome | Entry: `O=c1cc(OCc2ccc(F)cc2)ccn1-c1ccc(OCCN2CCCC2)cc1`
Output: no

---

As shown below, each of these compounds has a reported Potency value.
test system: HEK293; assay: Cytotoxic Profiling of Annotated Libraries Using Quantitative High-Throughput Screening (AID 1296008); conditions: Five cell lines viability, CellTiter-Glo ATP luminescence, 48-72 h; note: potency is the fitted concentration of half-maximal effect; nearly all actives have a fitted effect of over 60% in size
Records with an inconclusive call do not appear. Activity calls are given as the source filed them. The call rests on the fitted dose curve; in most records, active means well fitted inhibition curve with a large enough effect; inconclusive means small, poorly fitted or top-dose-only effect; inactive means flat fitted curve, though single readings scatter.

Input: Fill blank: measured Potency of the compound CCC(C(C)O)n1ncn(-c2ccc(N3CCN(c4ccc(OCC5COC(Cn6cncn6)(c6ccc(F)cc6F)C5)cc4)CC3)cc2)c1=O (stereo not given) is ____.
Output: 5.8 µM (active)

Input: Fill blank: measured Potency of the compound C=C(C)C(=O)OC1CC(CO)CCC/C(CO)=C/C2OC(=O)C(=C)C21 (stereo not given) is ____.
Output: 7.18 µM (active)

Input: Fill blank: measured Potency of the compound `C=C(C=O)[C@]1(O)C[C@@]2(C)C(=CC1=O)C=C[C@H](OC(=O)/C=C/C=C/[C@H](C)CC)[C@@H]2C` is ____.
Output: 3.99 µM (active)

Input: Fill blank: measured Potency of the compound `CC(C)(C)c1ccc(C(=O)Nc2cc(Cl)c(Br)cc2C(=O)O)cc1` is ____.
Output: 23.1 µM (active)

Input: Fill blank: measured Potency of the compound C=C(C)C(=O)O[C@H]1C[C@@](C)(O)C2(O)CCC(C)(/C=C3/OC(=O)C(COC)=C31)O2 (stereo not given in full) is ____.
Output: 3.21 µM (active)
